# MEASURED ON: GluN1/GluN2A-N615K receptors (Homo sapiens, UniProt Q05586+Q12879, N615K)
pIC50: −log10 of the molar value.
pIC50 values, listed per item

[
  {
    "CHEMICAL STRUCTURE": "NC12CC3CC(CC(C3)C1)C2",
    "pIC50": 3.34
  },
  {
    "CHEMICAL STRUCTURE": "CN1CC[C@@]23CCCC[C@@H]2[C@@H]1Cc1ccc(O)cc13",
    "pIC50": 6.47
  },
  {
    "CHEMICAL STRUCTURE": "COc1ccc2c(c1)[C@]13CCCC[C@@H]1[C@H](C2)N(C)CC3",
    "pIC50": 5.05
  }
]

====

# MEASURED ON: GluN1/GluN2A-L812M receptors (Homo sapiens, UniProt Q05586+Q12879, L812M)
# PROTOCOL SUMMARY: Agonist potency, TEVC recordings from Xenopus laevis oocytes, L812M mutant
# CONDITION SUMMARY: read-out: Glycine EC50; L812M; in the presence of 100 μmol/L glutamate; -40 mV

[
  {
    "COMPOUND": "NCC(=O)O [Glycine]",
    "MEASURED ON": "GluN1/GluN2A-L812M receptors (Homo sapiens, UniProt Q05586+Q12879, L812M)",
    "EC50 / µM": 0.14
  }
]

====

Reported values: IC50 for GluN1/GluN2A-L812M receptors (Homo sapiens, UniProt Q05586+Q12879, L812M), one per item.
MEASURED METRIC: IC50 (µM)

[
  {
    "CHEMICAL STRUCTURE": "CN1CC[C@@]23CCCC[C@@H]2[C@@H]1Cc1ccc(O)cc13",
    "MEASURED METRIC": "IC50",
    "ASSAY VALUE": 6.1
  },
  {
    "CHEMICAL STRUCTURE": "COc1ccc2c(c1)[C@]13CCCC[C@@H]1[C@H](C2)N(C)CC3",
    "MEASURED METRIC": "IC50",
    "ASSAY VALUE": 33
  },
  {
    "CHEMICAL STRUCTURE": "NC12CC3CC(CC(C3)C1)C2",
    "MEASURED METRIC": "IC50",
    "ASSAY VALUE": 113
  }
]
